This listing pairs binders with measured EC50 group, cGMP in GTM-3 cells.
- assay target: T1, natriuretic peptide receptor-B (human)
- T1 chain: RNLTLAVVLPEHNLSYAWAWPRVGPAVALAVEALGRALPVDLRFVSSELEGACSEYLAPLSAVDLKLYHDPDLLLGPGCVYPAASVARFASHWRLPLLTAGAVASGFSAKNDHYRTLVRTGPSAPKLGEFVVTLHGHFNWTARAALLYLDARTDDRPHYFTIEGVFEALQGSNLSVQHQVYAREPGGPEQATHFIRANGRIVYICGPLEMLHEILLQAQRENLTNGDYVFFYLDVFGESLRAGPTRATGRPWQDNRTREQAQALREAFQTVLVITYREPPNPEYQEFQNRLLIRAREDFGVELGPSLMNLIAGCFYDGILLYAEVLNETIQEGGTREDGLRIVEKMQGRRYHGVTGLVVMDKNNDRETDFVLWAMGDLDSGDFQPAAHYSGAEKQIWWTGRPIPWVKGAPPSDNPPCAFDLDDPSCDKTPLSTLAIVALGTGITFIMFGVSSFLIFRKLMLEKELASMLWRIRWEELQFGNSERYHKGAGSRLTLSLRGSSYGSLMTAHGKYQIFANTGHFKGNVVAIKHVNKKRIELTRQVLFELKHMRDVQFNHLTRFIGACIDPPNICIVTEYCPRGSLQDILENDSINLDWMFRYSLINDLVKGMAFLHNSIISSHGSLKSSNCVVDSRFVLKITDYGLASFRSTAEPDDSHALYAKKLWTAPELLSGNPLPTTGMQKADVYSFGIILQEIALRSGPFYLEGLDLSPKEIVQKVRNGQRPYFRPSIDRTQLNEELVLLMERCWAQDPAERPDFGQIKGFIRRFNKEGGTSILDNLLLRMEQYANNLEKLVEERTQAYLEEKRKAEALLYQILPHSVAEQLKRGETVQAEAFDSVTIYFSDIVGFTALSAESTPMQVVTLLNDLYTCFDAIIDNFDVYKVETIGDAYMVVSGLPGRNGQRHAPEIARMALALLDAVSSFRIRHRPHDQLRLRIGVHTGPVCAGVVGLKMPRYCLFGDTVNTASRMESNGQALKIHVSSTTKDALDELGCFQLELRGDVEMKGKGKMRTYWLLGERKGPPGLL
- procedure text: cell-based or functional assay
Numbered stars: 1 amine (or outer) side, 2 acyl side, 3 side chain; on linkers, the order of the positions; unused ones are H or OH. Square brackets hold non-standard residues; d marks the D form. Primed or numbered codes have the meaning given here. Ends that are not written are not given here. * marks the point of attachment. Pro(trans-4-NH2) = O=C([C@@H]1C[C@@H](N[*:3])CN1[*:1])[*:2]; Sni = (S)-nipecotic acid, O=C([C@H]1CCCN([*:1])C1)[*:2]; pT = C[C@@H](OP(=O)(O)O)[C@H](N)C(=O)O; Hyp = O=C(O)[C@@H]1C[C@@H](O)CN1; NMeF = CN[C@@H](Cc1ccccc1)C(=O)O; NMeL = CN[C@@H](CC(C)C)C(=O)O; dDap(Me2)′ = not defined here; orn(Me2) = not defined here; Ac6c = NC1(C(=O)O)CCCCC1; Octanoyl = CCCCCCCC(=O)*; Orn = NCCC[C@H](N)C(=O)O; Api = NC1(C(=O)O)CCNCC1; dHgl = not defined here; Occ = octanoic acid
attribute measured: EC50 group, cGMP in GTM-3 cells

# binder, reading
records = [
    ("[Occ][Sni][NMeF]GLP[NMeL]DRI-NH2 [JAL-0958_01]", "≤ 5 µM"),
    ("[Occ][dA]F[Api]L[Hyp][NMeL]DRI-NH2 [JAL-1338]", "≤ 1 µM"),
    ("[Occ][Sni]F[orn(Me2)]L[Hyp][NMeL][pT]RI-NH2 (reading uncertain; also: printed as Occ-Sni-Phe-orn(Me2)-Leu-Hyp-Nml-Pth-Arg-Ile-NH2) [JAL-1913]", "≤ 15 µM"),
    ("[Occ][Sni]F[dDap(Me2)′]L[Pro(trans-4-NH2)][NMeL]DRI-NH2 [JAL-1325]", "≤ 1 µM"),
    ("H-K[dHgl][Sni]FLL[Hyp][NMeL]DRI-NH2 (not fully specified (residue 5); printed as H-Lys-hgl-Sni-Phe-leu-Leu-Hyp-Nml-Asp-Arg-Ile-NH2; reading uncertain) [JAL-1899]", "≤ 5 µM"),
    ("Octanoyl-[Sni]FSL[Hyp][NMeL]DRI-NH2 (not fully specified (some residues); printed as Occ-Sni-Phe-ser-Leu-Hyp-Nml-Asp-Arg-Ile-NH2) [JAL-1253]", "≤ 5 µM"),
    ("[Occ]AFGIPLDRI-NH2 (not fully specified (residue 2); printed as Occ-ala-Phe-Gly-Ile-Pro-Leu-Asp-Arg-Ile-NH2) [JAL-0995]", "≤ 15 µM"),
    ("[Occ][dA]F[dR]L[Hyp][NMeL]D[Orn]I-NH2 [JAL-1327]", "≤ 5 µM"),
    ("[Occ][Sni]F[Api]L[Pro(trans-4-NH2)][NMeL]DRI-NH2 [JAL-1351]", "≤ 1 µM"),
    ("Octanoyl-[dA]F[dL]L[Hyp][NMeL]DR[Ac6c]-NH2 [JAL-1358]", "≤ 1 µM"),
]
